# Test system: penicillin resistant staphylococcus V84
# experimental.details: MIC by Gradient Plate Method vs penicillin resistant staphylococcus clinical isolates (Table II)
# Format: cell-based
# conditions.used: S = in the presence of serum, read-out: Minimum Inhibitory Concentration
# Description: In the tables the minimum inhibitory concentrations (MIC) of the listed compound verses the indicated gram-positive and gram-negative microorganisms is presented. The MIC values were determined by the Gradient Plate Method which is essentially the method described by Bryson and Szybalski, Science, 116, 45-46 (1952).
Attribute: MIC
Enter your answer as a number in µg/mL; do not include the unit.

                                   compound  endpoint_label  data_value
0  Cc1nnc(SCC2=C(C(=O)O)N3C(=O)C(NC(=O)[C@H](NC(=O)NC(=N)N)c4ccccc4)C3SC2)s1 (some centres unmarked)             MIC          10
1  CC(=O)OCC1=C(C(=O)O)N2C(=O)C(NC(=O)[C@H](NC(=O)NC(=N)N)c3ccccc3)C2SC1 (some centres unmarked) [E, reference compound]             MIC           1
2  Cn1nnnc1SCC1=C(C(=O)O)N2C(=O)C(NC(=O)[C@H](NC(=O)NC(=N)N)c3ccc(O)cc3)C2SC1 (some centres unmarked)             MIC           1
3  Cc1nnc(SCC2=C(C(=O)O)N3C(=O)C(NC(=O)[C@H](NC(=O)NC(=N)N)c4ccc(O)cc4)C3SC2)s1 (some centres unmarked)             MIC           2

Please turn your attention to the following entry.
Form field - read-out: MIC; system: penicillin resistant staphylococcus V84; submitted item: Cn1nnnc1SCC1=C(C(=O)O)N2C(=O)C(NC(=O)[C@H](NC(=O)NC(=N)N)c3ccccc3)C2SC1 (some centres unmarked) 1
